Biological target: recombinant human PKR enzyme (Homo sapiens (Human), UniProt P30613)
Sequence (P30613 whole entry): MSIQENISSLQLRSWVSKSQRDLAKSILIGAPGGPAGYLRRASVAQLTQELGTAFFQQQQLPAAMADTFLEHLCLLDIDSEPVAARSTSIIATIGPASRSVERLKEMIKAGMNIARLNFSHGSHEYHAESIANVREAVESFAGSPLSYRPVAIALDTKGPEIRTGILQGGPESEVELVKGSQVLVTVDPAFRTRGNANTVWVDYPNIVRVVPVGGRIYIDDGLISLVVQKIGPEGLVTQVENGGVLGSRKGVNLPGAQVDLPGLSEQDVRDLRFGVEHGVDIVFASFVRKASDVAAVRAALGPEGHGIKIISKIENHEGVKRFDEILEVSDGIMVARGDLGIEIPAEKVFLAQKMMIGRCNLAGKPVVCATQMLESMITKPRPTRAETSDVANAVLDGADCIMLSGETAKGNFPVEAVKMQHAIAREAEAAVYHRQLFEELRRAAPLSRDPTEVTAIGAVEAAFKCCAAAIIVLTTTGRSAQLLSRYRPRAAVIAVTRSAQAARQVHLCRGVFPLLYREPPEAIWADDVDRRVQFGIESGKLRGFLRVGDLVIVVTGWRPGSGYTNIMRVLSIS
Assay: Pyruvate kinase (PKR) activity experiment
Type: biochemical
Details: activation of recombinant human PKR enzyme
reportedEndpoint: AC50

compound	measurementTarget	reportedEndpoint	result
O=C([C@@H](CO)c1ccc(F)cc1)N1CC(=C2CN(S(=O)(=O)c3ccc4ncsc4c3)C2)C1	recombinant human PKR enzyme (Homo sapiens (Human), UniProt P30613)	AC50	300 to 1000 nM
O=C([C@H](CO)c1ccccc1)N1CC(=C2CN(S(=O)(=O)c3ccc(OC(F)F)cc3)C2)C1	recombinant human PKR enzyme (Homo sapiens (Human), UniProt P30613)	AC50	101 to 300 nM
O=C(C(CO)c1ccc2ccccc2c1)N1CC(=C2CN(S(=O)(=O)c3ccc4ncsc4c3)C2)C1 (stereo not drawn)	recombinant human PKR enzyme (Homo sapiens (Human), UniProt P30613)	AC50	< 100 nM
CNCC(C(=O)N1CC(=C2CN(S(=O)(=O)c3ccc4ncsc4c3)C2)C1)c1ccc(F)c(Cl)c1 (stereo not drawn)	recombinant human PKR enzyme (Homo sapiens (Human), UniProt P30613)	AC50	300 to 1000 nM
O=C([C@H](CO)c1ccccc1)N1CC(=C2CN(S(=O)(=O)c3cc(F)c4c(c3)OCCO4)C2)C1	recombinant human PKR enzyme (Homo sapiens (Human), UniProt P30613)	AC50	101 to 300 nM
N#Cc1ccc(C(CO)C(=O)N2CC(=C3CN(S(=O)(=O)c4ccccn4)C3)C2)cc1 (stereo not drawn)	recombinant human PKR enzyme (Homo sapiens (Human), UniProt P30613)	AC50	300 to 1000 nM
O=C([C@H](CO)c1ccccc1)N1CC(=C2CN(S(=O)(=O)c3ccc(OC4CC4)cn3)C2)C1	recombinant human PKR enzyme (Homo sapiens (Human), UniProt P30613)	AC50	< 100 nM
Cc1nc2c(C(O)C(=O)N3CC(=C4CN(S(=O)(=O)c5ccc(OC(F)F)cc5)C4)C3)cccc2s1 (stereo not drawn)	recombinant human PKR enzyme (Homo sapiens (Human), UniProt P30613)	AC50	300 to 1000 nM
Cn1cnc2ccc(S(=O)(=O)N3CC(=C4CN(C(=O)[C@H](CO)c5ccccc5)C4)C3)cc21	recombinant human PKR enzyme (Homo sapiens (Human), UniProt P30613)	AC50	101 to 300 nM
O=C(C(CO)c1ccc(F)cc1)N1CC(=C2CN(S(=O)(=O)c3ccc(OC(F)F)cc3)C2)C1 (stereo not drawn)	recombinant human PKR enzyme (Homo sapiens (Human), UniProt P30613)	AC50	101 to 300 nM
O=C([C@H](CO)c1ccccc1)N1CC(=C2CN(S(=O)(=O)c3ccc4ncsc4c3)C2)C1	recombinant human PKR enzyme (Homo sapiens (Human), UniProt P30613)	AC50	< 100 nM
O=C([C@H](CO)c1ccc(F)c(Cl)c1)N1CC(=C2CN(S(=O)(=O)c3ccccn3)C2)C1	recombinant human PKR enzyme (Homo sapiens (Human), UniProt P30613)	AC50	< 100 nM
O=C([C@H](CO)c1ccccc1)N1CC(=C2CN(S(=O)(=O)c3ccccn3)C2)C1	recombinant human PKR enzyme (Homo sapiens (Human), UniProt P30613)	AC50	101 to 300 nM
CN(C)CC(C(=O)N1CC(=C2CN(S(=O)(=O)c3ccc4ncsc4c3)C2)C1)c1ccc(F)c(Cl)c1 (stereo not drawn)	recombinant human PKR enzyme (Homo sapiens (Human), UniProt P30613)	AC50	300 to 1000 nM
O=C([C@@H](CO)c1ccc(F)cc1)N1CC(=C2CN(S(=O)(=O)c3ccccn3)C2)C1	recombinant human PKR enzyme (Homo sapiens (Human), UniProt P30613)	AC50	300 to 1000 nM

====

Biological target: recombinant human PKR enzyme (Homo sapiens (Human), UniProt P30613)
Test: Pyruvate kinase (PKR) activity experiment
Assay type: biochemical
Settings: activation of recombinant human PKR enzyme
Item-by-item account of AC50

molecule	AC50
O=C(C(O)c1ccc2c(c1)NCCO2)N1CC(=C2CN(S(=O)(=O)c3ccc(OC(F)F)cc3)C2)C1 (stereo not shown)	< 100 nM
O=C(N1CC(=C2CN(S(=O)(=O)c3ccc(OC(F)F)cc3)C2)C1)C1(c2ccccc2)CCOC1 (stereo not shown)	< 100 nM
O=C(C(CO)c1cc(F)cc(Cl)c1)N1CC(=C2CN(S(=O)(=O)c3ccccn3)C2)C1 (stereo not shown)	300 to 1000 nM
COc1ccc(C(CO)C(=O)N2CC(=C3CN(S(=O)(=O)c4ccc5ncsc5c4)C3)C2)cc1 (stereo not shown)	< 100 nM

====

Molecular target: recombinant human PKR enzyme (Homo sapiens (Human))
Assay: Pyruvate kinase (PKR) activity experiment
Type: biochemical
Conditions: activation of recombinant human PKR enzyme
reportedEndpoint: AC50

compound	measurementTarget	result
O=C([C@H](CO)c1ccccc1)N1CC(=C2CN(S(=O)(=O)c3ccc(OC(F)F)cn3)C2)C1	recombinant human PKR enzyme (Homo sapiens (Human))	< 0.1 µM
O=C([C@H](CO)c1ccccc1)N1CC(=C2CN(S(=O)(=O)c3ccc4c(c3)NCCO4)C2)C1	recombinant human PKR enzyme (Homo sapiens (Human))	< 0.1 µM
O=C([C@H](CO)c1ccc(F)cc1F)N1CC(=C2CN(S(=O)(=O)c3ccccn3)C2)C1	recombinant human PKR enzyme (Homo sapiens (Human))	< 0.1 µM
O=C([C@H](CO)c1ccccc1)N1CC(=C2CN(S(=O)(=O)c3ccc(Cl)cn3)C2)C1	recombinant human PKR enzyme (Homo sapiens (Human))	0.101 to 0.3 µM
NC(C(=O)N1CC(=C2CN(S(=O)(=O)c3ccc(OC(F)F)cc3)C2)C1)c1ccc(F)cc1 (stereo not drawn)	recombinant human PKR enzyme (Homo sapiens (Human))	0.3 to 1 µM
O=C(C(CO)c1ccc(F)c(Cl)c1)N1CC(=C2CN(S(=O)(=O)c3ccccn3)C2)C1 (stereo not drawn)	recombinant human PKR enzyme (Homo sapiens (Human))	0.101 to 0.3 µM
Cc1ccc(C(CO)C(=O)N2CC(=C3CN(S(=O)(=O)c4ccc5ncsc5c4)C3)C2)cc1 (stereo not drawn)	recombinant human PKR enzyme (Homo sapiens (Human))	< 0.1 µM
CNCC(C(=O)N1CC(=C2CN(S(=O)(=O)c3ccc4c(c3)OCCO4)C2)C1)c1ccc(F)c(Cl)c1OC (stereo not drawn)	recombinant human PKR enzyme (Homo sapiens (Human))	0.3 to 1 µM
O=C([C@H](CO)c1ccccc1)N1CC(=C2CN(S(=O)(=O)c3cccnc3)C2)C1	recombinant human PKR enzyme (Homo sapiens (Human))	0.3 to 1 µM
O=C([C@H](CO)c1ccccc1)N1CC(=C2CN(S(=O)(=O)c3cnc4c(c3)OCCO4)C2)C1	recombinant human PKR enzyme (Homo sapiens (Human))	0.3 to 1 µM
O=C([C@@H](CO)c1ccc(F)cc1F)N1CC(=C2CN(S(=O)(=O)c3ccccn3)C2)C1	recombinant human PKR enzyme (Homo sapiens (Human))	0.3 to 1 µM
O=C([C@H](CO)c1ccccc1)N1CC(=C2CN(S(=O)(=O)c3cccc4cccnc34)C2)C1	recombinant human PKR enzyme (Homo sapiens (Human))	< 0.1 µM
CN1C(=O)COc2ccc(S(=O)(=O)N3CC(=C4CN(C(=O)[C@H](CO)c5ccccc5)C4)C3)cc21	recombinant human PKR enzyme (Homo sapiens (Human))	0.3 to 1 µM
CCOc1ccc(S(=O)(=O)N2CC(=C3CN(C(=O)[C@H](CO)c4ccccc4)C3)C2)nc1	recombinant human PKR enzyme (Homo sapiens (Human))	< 0.1 µM
NC(C(=O)N1CC(=C2CN(S(=O)(=O)c3ccc(OC(F)F)cc3)C2)C1)c1cccc(C(F)(F)F)c1 (stereo not drawn)	recombinant human PKR enzyme (Homo sapiens (Human))	0.3 to 1 µM
O=C(C(CO)c1ccc(F)c(F)c1)N1CC(=C2CN(S(=O)(=O)c3ccccn3)C2)C1 (stereo not drawn)	recombinant human PKR enzyme (Homo sapiens (Human))	0.3 to 1 µM
O=C([C@H](CO)c1ccccc1)N1CC(=C2CN(S(=O)(=O)c3ccc4c(n3)OCCO4)C2)C1	recombinant human PKR enzyme (Homo sapiens (Human))	< 0.1 µM
O=C([C@H](CO)c1ccccc1)N1CC(=C2CN(S(=O)(=O)c3ccc(-c4ncco4)c(F)c3)C2)C1	recombinant human PKR enzyme (Homo sapiens (Human))	0.3 to 1 µM

====

Target: recombinant human PKR enzyme (Homo sapiens (Human), UniProt P30613)
Experiment: Pyruvate kinase (PKR) activity experiment
Format: biochemical
Conditions: activation of recombinant human PKR enzyme
reportedEndpoint: AC50

compound	reportedEndpoint	result
Cn1cc(-c2ccc(C(CO)C(=O)N3CC(=C4CN(S(=O)(=O)c5ccc6ncsc6c5)C4)C3)cc2)cn1 (centres unmarked) [Compound 34]	AC50	300 to 1000 nM
CN1CCN(c2cccc(C(CO)C(=O)N3CC(=C4CN(S(=O)(=O)c5ccc6ncsc6c5)C4)C3)c2)CC1 (centres unmarked) [Compound 33]	AC50	300 to 1000 nM
CN1CCOc2ccc(S(=O)(=O)N3CC(=C4CN(C(=O)[C@H](CO)c5ccccc5)C4)C3)cc21 [Compound 39]	AC50	< 100 nM
O=C(C(CO)c1cccc(F)c1)N1CC(=C2CN(S(=O)(=O)c3ccc4ncsc4c3)C2)C1 (centres unmarked) [Compound 46]	AC50	< 100 nM
O=C([C@@H](CO)c1ccc(F)c(Cl)c1)N1CC(=C2CN(S(=O)(=O)c3ccccn3)C2)C1 [Compound 76]	AC50	300 to 1000 nM
